Data provenance is paper PMC9379584.

# system-name: α2A-AR (Rattus norvegicus, UniProt P22909)
# Sequence (P22909 1-465): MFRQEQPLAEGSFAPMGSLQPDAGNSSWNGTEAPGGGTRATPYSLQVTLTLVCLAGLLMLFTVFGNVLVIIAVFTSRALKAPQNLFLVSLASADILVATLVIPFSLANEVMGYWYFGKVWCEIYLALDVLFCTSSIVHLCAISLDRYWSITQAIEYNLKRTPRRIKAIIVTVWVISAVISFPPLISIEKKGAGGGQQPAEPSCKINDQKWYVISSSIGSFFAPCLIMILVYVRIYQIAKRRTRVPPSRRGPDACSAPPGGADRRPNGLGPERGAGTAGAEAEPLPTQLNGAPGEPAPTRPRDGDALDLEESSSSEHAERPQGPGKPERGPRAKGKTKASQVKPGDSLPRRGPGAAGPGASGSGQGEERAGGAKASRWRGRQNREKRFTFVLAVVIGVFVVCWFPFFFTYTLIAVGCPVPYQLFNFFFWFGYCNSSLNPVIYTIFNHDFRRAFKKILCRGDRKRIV
# experiment: cell-based
# condition: EC50, Gαz recruitment to α2A-AR, nanoBRET, Gαz
quantity: EC50 (nM)
// note: answer is a bare numeric in nM

Ask: GET /values?readout=EC50&item= `NCCc1ccc(O)c(O)c1`
Reply: 666
